Consider the following binders and their measured EC50 readings.
# assay-system: T1, SARS-CoV-2 RBD (SinoBiological, Cat. No. 40592-V02H) (SARS-CoV-2, UniProt P0DTC2 319-541)
# T1 construct: domain: RBD
# experiment-summary: ELISA on RBD

[
  {
    "binder": "VHH-72 (S57A, Y60H) (VHH) VHH: QVQLQESGGGLVQAGGSLRLSCAASGRTFSEYAMGWFRQAPGKEREFVATISWSGGATYHTDSVKGRFTISRDNAKNTVYLQMNSLKPDDTAVYYCAAAGLGTVVSEWDYDYDYWGQGTQVTVSS",
    "EC50 (µg/mL)": 0.029
  },
  {
    "binder": "VHH-72 (S57A) (VHH) VHH: QVQLQESGGGLVQAGGSLRLSCAASGRTFSEYAMGWFRQAPGKEREFVATISWSGGATYYTDSVKGRFTISRDNAKNTVYLQMNSLKPDDTAVYYCAAAGLGTVVSEWDYDYDYWGQGTQVTVSS",
    "EC50 (µg/mL)": 0.09
  }
]
